Origin of values: PubChem BioAssay AID1159580

# Protocol Text: chemical genetic growth profiling, strain panel (AID 1159580);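 note: tested at 20 µM; growth read once vehicle control cultures reached saturation at 30 °C; lower values mean less growth of the strain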
# Experimental Setup: S. cerevisiae deletion strains, growth OD, locus YKL009W, strain mrt4, hits give low values
The campaign covered roughly 5,500 compounds. About 2,000 (36%) were called active. Not shown: some 18% with an inconclusive outcome. This is one part of the list.
Entries whose normalized growth is below 1 take Condition met; entries at or above 1 take Condition not met.

Molecule	Label
COc1cc(C)c2c(=O)cc(-c3ccccc3)oc2c1	Condition met
C[C@]12CCC3C(CC[C@H]4C[C@@H](O)CC[C@]34C)C1CC[C@@H]2O (stereo partly drawn)	Condition met
CC(=O)OCC(=O)[C@@]1(O)CCC2C3CCC4=CC(=O)C=CC4(C)C3[C@@H](O)C[C@@]21C (stereo partly drawn)	Condition not met
C[C@]12CCC3C(CC[C@H]4C[C@H](O)CC[C@]34C)C1CC[C@@H]2O (stereo partly drawn)	Condition met
COC1=CC(=O)OC(CCc2ccc(OC)c(OC)c2)C1 (stereo not drawn)	Condition not met
O=C(O)COc1ccc(Cl)cc1Cl	Condition not met
O=NN(CCCl)C(=O)NCCCl	Condition met
Fc1ccc([C@@H]2CCNC[C@H]2COc2ccc3c(c2)OCO3)cc1	Condition not met
Cc1cccc(C)c1NC(=O)C1CCCCN1C (stereo not drawn)	Condition not met
COc1cc(OC)c2c(=O)cc(-c3ccccc3)oc2c1	Condition met
COc1cc2c(cc1OC)C1(O)C(=O)c3ccc(O)c(C(=O)O)c3OC1CO2 (stereo not drawn)	Condition not met
COC(=O)/C(C)=C\CC12OC(C)(C)C3CC(C=C4C(=O)c5c(OC)c6c(c(CC=C(C)C)c5OC431)OC(C)(CCC=C(C)C)C=C6)C2=O (stereo not drawn)	Condition met
